test system: CEM cells HIV-1 protection, formazan growth assay; assay: NCI AIDS Antiviral Assay;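 active = compounds giving half or more protection of infected cells from virus-caused growth loss, again on retest; inactive = the rest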
Answer with one of the outcomes given here: t = active, f = inactive

Record lookup: outcome of this test for `O=Nc1ccccc1` ?
f

Entry `O=C1/C(=C/c2ccc(OCc3ccccc3)cc2)CCC/C1=C\c1ccc(OCc2ccccc2)cc1` : call = ?
f

Please state the recorded outcome for this compound: `CC(C)c1nc2c(c(=O)o1)CCS2`
f

Call for entry COC1/C=C/OC2(C)Oc3c(C)c(O)c4c(O)c(c(/C=N/N(C)c5nc6c(N)ncnc6n5C5OC(CO)C(O)C5O)c(O)c4c3C2=O)NC(=O)C(C)=C/C=C/C(C)C(O)C(C)C(O)C(C)C(OC(C)=O)C1C (stereo unspecified) :
f

I would be grateful if you could indicate the recorded call for `O=S(=O)(O)CN(CCN(CS(=O)(=O)O)CS(=O)(=O)O)CS(=O)(=O)O` .
f

// outcome(item) with item = `CC1(C)CNC[C@@](C)(OCCO)C(=O)[N-]C(C)(C)CNC[C@@](C)(OCCO)C(=O)[N-]1.[Ni+2]`
f

More entries:
Recorded test call requested for COC(=O)C1(NC(=O)C(N)CC(=O)O)C(C)C1C (stereo unspecified)
f

Could you please tell me the result logged for `CC(C)CCC[C@@H](C)[C@H]1CC[C@H]2C3=C[C@H](OS(=O)(=O)O)[C@@]4(O)C[C@@H](O)CC[C@]4(C)[C@@]3(O)CC[C@]12C` in this assay?
f

Please share the test call associated with `CSC(SC)=C1CC(=O)Nc2ccccc2C1=O` .
f

Can you look up the reported call for `CCCCCC/C=C\CCCCCCCCCc1c(O)c(OC)cc(O)c1CN(C)C` for me?
f

Please indicate how the test categorized `O=C1c2ccccc2C(=O)N1CCCC[P+](c1ccccc1)(c1ccccc1)c1ccccc1` .
f

Please indicate how the test categorized CC(=O)OCC1OC(Nc2[nH]c(=O)[nH]c(=O)c2N=O)C(OC(C)=O)C(OC(C)=O)C1OC(C)=O (stereo unspecified) .
f
